- Target Or System: Rev peptide (Human immunodeficiency virus 1)
- Test Description: FRET quenching; TAMRA-Rev and DABCYL-TAR; 50 mM Tris pH 8, 50 mM KCl, room temp
- Settings: protein: synthetic; tags: chemically synthesised peptide; N-terminal TAMRA; label: 3'-DABCYL or 5'-Cy3; hairpin with bulge
Experimental Endpoint: pKd
Please express pKd as -log10 of the molar concentration.

Item under review: CCCAGAUCUGAGCCUGGGAGCUCUCUGGG (ssRNA) [TAR RNA 29-mer] . Reported pKd?
4.96

The reported numbers originate from patent US6573045.
